This collection of values is drawn from BigSolDB 2.1.

# Test parameters: in DMAc, 336.15 K
Property: solubility (mole fraction)

>  <Smiles notation>
COC1=CC(=O)C[C@@H](C)[C@]12Oc1c(Cl)c(OC)cc(OC)c1C2=O

>  <Obs value>
0.0452

$$$$

* * *

# Test parameters: in 2-butanone, 330.35 K

>  <Smiles notation>
COC1=CC(=O)C[C@@H](C)[C@]12Oc1c(Cl)c(OC)cc(OC)c1C2=O

>  <solubility (mole fraction)>
0.0163

$$$$

* * *

# Test parameters: in acetone, 310.25 K
Property: solubility (mole fraction)

>  <Smiles notation>
COC1=CC(=O)C[C@@H](C)[C@]12Oc1c(Cl)c(OC)cc(OC)c1C2=O

>  <Property>
solubility (mole fraction)

>  <Obs value>
0.0117

$$$$

* * *

# Test parameters: in acetone, 286.4 K
Property: solubility (mole fraction)

>  <Smiles notation>
COC1=CC(=O)C[C@@H](C)[C@]12Oc1c(Cl)c(OC)cc(OC)c1C2=O

>  <Obs value>
0.0071

$$$$

* * *

# Test parameters: in 1,2-dichloroethane, 310.05 K

>  <Smiles notation>
COC1=CC(=O)C[C@@H](C)[C@]12Oc1c(Cl)c(OC)cc(OC)c1C2=O

>  <solubility (mole fraction)>
0.0251

$$$$

* * *

# Test parameters: in 2-butanone, 315.05 K

>  <Smiles notation>
COC1=CC(=O)C[C@@H](C)[C@]12Oc1c(Cl)c(OC)cc(OC)c1C2=O

>  <solubility (mole fraction)>
0.0128

$$$$

* * *

# Test parameters: in 1,2-dichloroethane, 319.35 K

>  <Smiles notation>
COC1=CC(=O)C[C@@H](C)[C@]12Oc1c(Cl)c(OC)cc(OC)c1C2=O

>  <solubility (mole fraction)>
0.0289

$$$$

* * *

# Test parameters: in NMP, 345.55 K

>  <Smiles notation>
COC1=CC(=O)C[C@@H](C)[C@]12Oc1c(Cl)c(OC)cc(OC)c1C2=O

>  <solubility (mole fraction)>
0.0758

$$$$

* * *

# Test parameters: in DMAc, 319.25 K

>  <Smiles notation>
COC1=CC(=O)C[C@@H](C)[C@]12Oc1c(Cl)c(OC)cc(OC)c1C2=O

>  <solubility (mole fraction)>
0.0369

$$$$

* * *

# Test parameters: in NMP, 355.65 K

>  <Smiles notation>
COC1=CC(=O)C[C@@H](C)[C@]12Oc1c(Cl)c(OC)cc(OC)c1C2=O

>  <solubility (mole fraction)>
0.083

$$$$

* * *

# Test parameters: in 1,2-dichloroethane, 315.65 K
Property: solubility (mole fraction)

>  <Smiles notation>
COC1=CC(=O)C[C@@H](C)[C@]12Oc1c(Cl)c(OC)cc(OC)c1C2=O

>  <Property>
solubility (mole fraction)

>  <Obs value>
0.0268

$$$$

* * *

# Test parameters: in 2-butanone, 302.95 K

>  <Smiles notation>
COC1=CC(=O)C[C@@H](C)[C@]12Oc1c(Cl)c(OC)cc(OC)c1C2=O

>  <solubility (mole fraction)>
0.0103

$$$$

* * *

# Test parameters: in DMSO, 310.85 K
Property: solubility (mole fraction)

>  <Smiles notation>
COC1=CC(=O)C[C@@H](C)[C@]12Oc1c(Cl)c(OC)cc(OC)c1C2=O

>  <Property>
solubility (mole fraction)

>  <Obs value>
0.0218

$$$$

* * *

# Test parameters: in 2-butanone, 296.95 K

>  <Smiles notation>
COC1=CC(=O)C[C@@H](C)[C@]12Oc1c(Cl)c(OC)cc(OC)c1C2=O

>  <solubility (mole fraction)>
0.00941

$$$$

* * *

# Test parameters: in NMP, 340.35 K

>  <Smiles notation>
COC1=CC(=O)C[C@@H](C)[C@]12Oc1c(Cl)c(OC)cc(OC)c1C2=O

>  <solubility (mole fraction)>
0.0704

$$$$

* * *

# Test parameters: in NMP, 320.6 K

>  <Smiles notation>
COC1=CC(=O)C[C@@H](C)[C@]12Oc1c(Cl)c(OC)cc(OC)c1C2=O

>  <solubility (mole fraction)>
0.057

$$$$

* * *

# Test parameters: in DMAc, 340.25 K

>  <Smiles notation>
COC1=CC(=O)C[C@@H](C)[C@]12Oc1c(Cl)c(OC)cc(OC)c1C2=O

>  <solubility (mole fraction)>
0.0488

$$$$

* * *

# Test parameters: in 2-butanone, 320.4 K

>  <Smiles notation>
COC1=CC(=O)C[C@@H](C)[C@]12Oc1c(Cl)c(OC)cc(OC)c1C2=O

>  <solubility (mole fraction)>
0.0141

$$$$
